test system: MDR1-MDCK cell monolayers; assay: MDCK-MDR1 permeability assay (BBB penetration potential); assay type: in vitro ADME; details: 5 μM, 120 minutes, pH 7.4
assay.readout: MDCK-MDR1: % Recov B-A (%)
// note: answer is a bare numeric in %

Which measured MDCK-MDR1: % Recov B-A value corresponds to CN(c1nnc(-c2ccc(-c3cc(=O)n(C)cn3)cc2O)s1)[C@H]1C[C@@H]2CC[C@@H](N2)[C@H]1F (single isomer, unassigned) [Compound E-8B] ? 42

And for CN(c1nnc(-c2cc(F)c(-c3cn[nH]c3)cc2O)s1)[C@H]1C[C@@H]2CC[C@H]([C@H]1F)N2C (single isomer, unassigned) [Compound E-24A] ? 74

And for COc1cc(-c2ccc(-c3nnc(N(C4CC4)[C@H]4C[C@@H]5CC[C@@H](N5)[C@H]4F)s3)c(O)c2)cc(F)n1 [Compound E-2B] ? 44

----------
Field: IC50. Provide a value for each of the compounds that follow.
tested on: SMN2; experiment: Quantitative splicing assay (SMN) in SMA patient fibroblasts GM03813; type: cell-based; conditions: Homo sapiens, Fibroblast; SMA patient fibroblasts GM03813, 24 h; read-out: SMN2 Potency - Splicing: Splicing D7 IC50 (average)

Which measured IC50 value corresponds to CN(c1nnc(-c2cc(F)c(-c3cnn(C)c3)cc2O)s1)[C@H]1C[C@@H]2CC[C@@H](N2)[C@H]1F (single isomer, unassigned) [Compound E-9A] ? 51 to 100 nM

And for CN(c1nnc(-c2ccc(-c3cnn(C)c3)cc2O)s1)[C@@H]1C[C@H]2CCC[C@H](N2)[C@@H]1F [Compound E-1A] ? 51 to 100 nM

And for CN(c1nnc(-c2ccc(-c3ccn(CF)c(=O)c3)cc2O)s1)[C@H]1C[C@@H]2CC[C@@H](N2)[C@H]1F (single isomer, unassigned) [Compound E-15B] ? 51 to 100 nM

And for COc1cc(-c2ccc(-c3nnc(N(C)[C@@H]4C[C@H]5CC[C@H](N5)[C@@H]4F)s3)c(O)c2)ncn1 (single isomer, unassigned) [Compound E-5A] ? 51 to 100 nM

And for CN(c1nnc(-c2cc(F)c(-c3cnn(C)c3)cc2O)s1)[C@@H]1C[C@H]2CC[C@H](N2)[C@@H]1F (single isomer, unassigned) [Compound E-9B] ? 0.01 to 15 nM

And for CN(c1nnc(-c2cc(F)c(-c3cn[nH]c3)cc2O)s1)[C@H]1C[C@@H]2CC[C@@H](N2)[C@H]1F (single isomer, unassigned) [Compound E-6B] ? 0.01 to 15 nM

And for CN(c1nnc(-c2ccc(-c3cnn(CF)c3)cc2O)s1)[C@@H]1C[C@H]2CC[C@H](N2)[C@@H]1F (single isomer, unassigned) [Compound E-10B] ? 16 to 50 nM

And for COc1cc(-c2ccc(-c3nnc(N(C4CC4)[C@H]4C[C@@H]5CC[C@@H](N5)[C@H]4F)s3)c(O)c2)cc(F)n1 [Compound E-2B] ? 16 to 50 nM

And for CN(c1nnc(-c2ccc(-c3cnn(C)c3)cc2O)s1)[C@H]1C[C@@H]2CCC[C@@H](N2)[C@H]1F [Compound E-1B] ? 0.01 to 15 nM

And for CN(c1nnc(-c2ccc(-c3cnn(C)c3)cc2O)s1)[C@H]1C[C@@H]2CC[C@@H](N2)[C@H]1F [Compound E-3A] ? 101 to 500 nM

And for CN(c1nnc(-c2ccc(-c3cnn(C)c3)cc2O)s1)[C@@H]1C[C@H]2CC[C@H](N2)[C@@H]1F [Compound E-3B] ? 0.01 to 15 nM

And for CN(c1nnc(-c2ccc(-c3cn[nH]c3)cc2O)s1)[C@H]1C[C@@H]2CC[C@H]([C@H]1F)N2C (single isomer, unassigned) [Compound E-23A] ? 501 to 10000 nM

And for COc1cc(-c2ccc(-c3nnc(N(C4CC4)[C@@H]4C[C@H]5CC[C@H](N5)[C@@H]4F)s3)c(O)c2)cc(F)n1 [Compound E-2A] ? 0.01 to 15 nM

And for CN(c1nnc(-c2ccc(-c3cn[nH]c3)cc2O)s1)[C@@H]1C[C@H]2CC[C@H](N2)[C@@H]1F (single isomer, unassigned) [Compound E-7B] ? 0.01 to 15 nM

----------
tested on: MDR1; assay: MDCK-MDR1 permeability assay (BBB penetration potential); type: in vitro ADME; settings: dog, MDCK-MDR1, pH 7.4, Papp (B-to-A)/Papp (A-to-B); 5 μM, 120 minutes; separated enantiomers, told apart by chiral retention time; read-out: MDCK MDRP1 Efflux Ratio
assay.readout: efflux ratio at 120 min, 5 μM
# answer = number (no unit)

Which measured efflux ratio at 120 min, 5 μM value corresponds to COc1cc(-c2ccc(-c3nnc(N(C)[C@@H]4C[C@H]5CC[C@H](N5)[C@@H]4F)s3)c(O)c2)ncn1 (racemic) ? 2

And for CN(c1nnc(-c2ccc(-c3cnn(C)c3)cc2O)s1)[C@H]1C[C@@H]2CC[C@H]([C@H]1F)N2C (racemic) [21A/21B] ? 3

And for CN(c1nnc(-c2cc(F)c(-c3cn[nH]c3)cc2O)s1)[C@H]1C[C@@H]2CC[C@H]([C@H]1F)N2C (racemic) [24A/24B] ? 6

And for CN(c1nnc(-c2ccc(-c3cnn(C)c3)cc2O)s1)[C@H]1C[C@@H]2CC[C@@H](N2)[C@H]1F (racemic) ? 4.3

----------
system: MDR1-MDCK cell monolayers; assay: MDCK-MDR1 permeability assay (BBB penetration potential); format: in vitro ADME; conditions: 5 μM, 120 minutes, pH 7.4
assay.readout: MDCK-MDR1: % Recov B-A (%)
// note: answer is a bare numeric in %

Which measured MDCK-MDR1: % Recov B-A value corresponds to CN(c1nnc(-c2cc(F)c(-c3cnn(C)c3)cc2O)s1)[C@H]1C[C@@H]2CC[C@@H](N2)[C@H]1F (single isomer, unassigned) ? 68

And for CN(c1nnc(-c2ccc(-c3cn[nH]c3)cc2O)s1)[C@H]1C[C@@H]2CC[C@H]([C@H]1F)N2C (single isomer, unassigned) [Compound E-23A] ? 90

And for CN(c1nnc(-c2cc(F)c(-c3cn[nH]c3)cc2O)s1)[C@@H]1C[C@H]2CC[C@@H]([C@@H]1F)N2C (single isomer, unassigned) [Compound E-24B] ? 82

And for CN(c1nnc(-c2ccc(-c3ccn(C)c(=O)c3)cc2O)s1)[C@H]1C[C@@H]2CC[C@@H](N2)[C@H]1F (single isomer, unassigned) ? 125

And for CN(c1nnc(-c2ccc(-c3ccn(CF)c(=O)c3)cc2O)s1)[C@H]1C[C@@H]2CC[C@@H](N2)[C@H]1F (single isomer, unassigned) [Compound E-15B] ? 97

----------
test system: MDR1; test: MDCK-MDR1 permeability assay (BBB penetration potential); format: in vitro ADME; conditions: dog, MDCK-MDR1; 5 μM, 120 minutes, pH 7.4
Field: Papp B→A at 120 min, 5 μM. Provide a value for each of the molecules that follow.
// note: answer is a bare numeric in ×10⁻⁶ cm/s

Which measured Papp B→A at 120 min, 5 μM value corresponds to CN(c1nnc(-c2ccc(-c3cn[nH]c3)cc2O)s1)[C@@H]1C[C@H]2CC[C@H](N2)[C@@H]1F (single isomer, unassigned) ? 56

And for CN(c1nnc(-c2ccc(-c3ccn(C)c(=O)c3)cc2O)s1)[C@@H]1C[C@H]2CC[C@H](N2)[C@@H]1F (single isomer, unassigned) ? 55.9

And for CN(c1nnc(-c2cc(F)c(-c3cnn(C)c3)cc2O)s1)[C@@H]1C[C@H]2CC[C@H](N2)[C@@H]1F (single isomer, unassigned) ? 26

And for CN(c1nnc(-c2ccc(-c3cnn(C)c3)cc2O)s1)[C@@H]1C[C@H]2CC[C@H](N2)[C@@H]1F ? 51.1

And for CN(c1nnc(-c2ccc(-c3cc(=O)n(C)cn3)cc2O)s1)[C@H]1C[C@@H]2CC[C@@H](N2)[C@H]1F (single isomer, unassigned) ? 20.6

And for CN(c1nnc(-c2cc(F)c(-c3cn[nH]c3)cc2O)s1)[C@H]1C[C@@H]2CC[C@@H](N2)[C@H]1F (single isomer, unassigned) ? 39.3

And for CN(c1nnc(-c2ccc(-c3cnn(C)c3)cc2O)s1)[C@H]1C[C@@H]2CC[C@@H](N2)[C@H]1F ? 35.2

----------
tested on: SMN protein; test: SMN protein assay (MSD) in SMA patient fibroblasts GM03813; assay type: cell-based; settings: Fibroblast, 48 h, SMA patient fibroblasts GM03813, 48 hours; read-out: SMN2 Potency - Protein: Protein FL EC50 (average)
pEC50: −log10 of the molar value.
assay.readout: pEC50

Please tell me: pEC50 of CN(c1nnc(-c2ccc(-c3cnn(C)c3)cc2O)s1)[C@@H]1C[C@H]2CCC[C@H](N2)[C@@H]1F [Compound E-1A] , system SMN protein? 7.30 to 7.80

And for COc1cc(-c2ccc(-c3nnc(N(C)[C@@H]4C[C@H]5CC[C@H](N5)[C@@H]4F)s3)c(O)c2)ncn1 (single isomer, unassigned) [Compound E-5A] ? 7.30 to 7.80

And for CN(c1nnc(-c2cc(F)c(-c3cnn(C)c3)cc2O)s1)[C@@H]1C[C@H]2CC[C@H](N2)[C@@H]1F (single isomer, unassigned) [Compound E-9B] ? 7.30 to 7.80

And for CN(c1nnc(-c2ccc(-c3ccn(CF)c(=O)c3)cc2O)s1)[C@H]1C[C@@H]2CC[C@@H](N2)[C@H]1F (single isomer, unassigned) [Compound E-15B] ? 7.30 to 7.80

And for CN(c1nnc(-c2ccc(-c3cn[nH]c3)cc2O)s1)[C@@H]1C[C@H]2CC[C@H](N2)[C@@H]1F (single isomer, unassigned) [Compound E-7B] ? 7.82 to 11.00

And for COc1cc(-c2ccc(-c3nnc(N(C4CC4)[C@@H]4C[C@H]5CC[C@H](N5)[C@@H]4F)s3)c(O)c2)cc(F)n1 [Compound E-2A] ? 7.82 to 11.00

Data origin: patent US20230069804A1
